Reported viability by item:
Assay: growth suppression of PTEN-deleted HCT116, pilot screen, cell-based, HCT116 clonal line, CellTiter-Glo (AID 824);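 note: 0% = 20 µM Hyamine control and 100% = vehicle cell control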
Details: 60 h, at 10 µM, stronger effect = lower value
Results filed as inconclusive are left out.

Compound | viability / %
O=C(NCC1CCCO1)c1ccc2c(c1)C(=O)N(C1CCCCC1)C2=O (configuration not stated) | 91.5
COc1ccc(C(=O)Nc2cc3c(cc2C#N)OCO3)cc1S(=O)(=O)N1CCN(C)CC1 | 101
CN(C)/C=N/c1c(C#N)cnn1-c1ccccc1 | 96.6
CSC1=NCCN1C(=O)C(C)Oc1ccccc1 (configuration not stated) | 99.2
O=C(NCCCN1CCCC1=O)c1ccc2c(c1)ncn2C1CCCCC1 | 109
CCCC(=O)Nc1nc2ccc(S(=O)(=O)N3CCCCC3)cc2s1 | 37.3
CCOc1ccccc1NC(=O)CSc1ccccc1 | 85.8
O=C(c1ccccc1)c1ccc2nc(N3CCCCC3)c3nncn3c2c1 | 56.4
Cc1ccsc1C1C2=C(CC(C)(C)CC2=O)Nc2ncnn21 (configuration not stated) | 102
Cc1ccc2oc(=O)c3cnn(CC(=O)N4CCc5ccccc5C4)c3c2c1 | 92.1
O=C(Oc1c(Cl)cc(Cl)c2cccnc12)N1CCOCC1 | 95.3
CCc1ccccc1NC(=O)c1cc(-c2cccc(O)c2)on1 | 96

====

Assay: inhibitors of the yeast RAM network, pilot screen, dse1pr::URA3 reporter, 5-FOA selection (AID 869);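 note: 0% = DMSO wells with no growth and 100% = 10 µM 1-NA-PP1 with full growth; RAM network block rescues cells from 5-FOA so hits raise OD615 growth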
Settings: S. cerevisiae dse1pr::URA3 5-FOA growth, OD615, 2 d; at 10 µM; stronger effect = higher value; strain carries analog-sensitive mutant Cbk1 kinase
Form field: inhibition (one value per entry).

Molecule | inhibition / %
CC(=O)c1cccc(NC(=O)c2cnn3ccccc23)c1 | 1.73
CC(Cc1ccccc1)N/C=C1/CC(=O)NC1=O (stereo unspecified) | 1.42
CCOc1cc(/C=N/n2cnnc2)ccc1OCC(=O)Nc1ccccc1OC | 1.91
CCOc1ccc(N(CC(=O)O)S(=O)(=O)c2cccnc2)cc1 | -0.27
Nc1nc2n(n1)C(c1ccco1)CC(c1ccc(F)cc1)N2 (stereo unspecified) | 0.45
Cn1c(=O)oc2cc(S(=O)(=O)N3CCC(C(=O)NCc4cccs4)CC3)ccc21 | 0.335

====

Parameter viability: see the listing below.
Test: growth suppression of PTEN-deleted HCT116, pilot screen, cell-based, HCT116 clonal line, CellTiter-Glo (AID 824);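 note: 0% = 20 µM Hyamine control and 100% = vehicle cell control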
Conditions: 60 h, at 10 µM, stronger effect = lower value
Inconclusive results are not listed.

Compound | Quantity Unit | viability
Cc1ccc(C)c(Nc2ncnc3nc[nH]c23)c1 | % | 103
O=C1CC(c2ccccc2)CC(O)=C1C=NCCN1CCNCC1 (configuration not stated) | % | 98.1
COC(=O)c1ccsc1NC(=O)C1COc2ccccc2O1 (configuration not stated) | % | 85.5
Brc1ccc(CSc2ncn[nH]2)cc1 | % | 95.3
Cc1ccc(OCC(=O)Nc2cc(-c3nn4c(C)nnc4s3)ccc2C)cc1 | % | 88
Cc1nc2ccccc2c2nc3ccccc3n12 | % | 62.4
COC(=O)CN1C(=O)COc2ccc(Cl)cc21 | % | 94

====

Quick reference: viability of the listed items.
Experiment: reversal of MRP1-mediated doxorubicin resistance, pilot screen, H69AR cells, doxorubicin co-treatment (AID 601)
Conditions: H69AR cells + 2 uM doxorubicin, CellTiter-Glo, 72 h; measured here: viability with 2 uM doxorubicin; at 10 µM; stronger effect = lower value

Molecule | viability
CC(COc1ccccc1)NC(C)C(O)c1ccc(O)cc1 (stereo not drawn) | 106%
CCOC(=O)C1=C(C)N=C2SCCC(=O)N2C1c1cc(Br)ccc1OC (stereo not drawn) | 90.3%
CCn1c(C)cc(=S)c2ccccc21 | 87.3%
O=C(O)c1ccc2c(c1)N(Cc1ccccc1F)C(=O)c1ccccc1S2=O (stereo not drawn) | 97.8%
Cc1cc(NC(=O)COc2cccc3cccnc23)no1 | 79.5%
COc1ccc(-n2nnc3c(=O)n(C/C=C/c4ccccc4)cnc32)cc1 | 77.1%
CN(C)CCOC(c1ccccc1)c1ccccc1 (tested in a mixture with another compound) | 83.7%
CCS(=O)(=O)Nc1ccc(C(=O)CC2(O)C(=O)Nc3ccccc32)cc1 (stereo not drawn) | 97.3%
CCCc1nc(N2CCOCC2)c(C#N)c2c1CCCC2 | 91.5%
O=C(C1CCCN(S(=O)(=O)c2ccc(Br)s2)C1)N1CCCCCC1 (stereo not drawn) | 88.2%
CCOC(=O)N1CCC(N2C(=O)c3ccc(C(=O)NCc4ccco4)cc3C2=O)CC1 | 81%
CCOCCCNC(=O)C1CCC(=O)N1CCc1ccccc1 (stereo not drawn) | 111%
Cc1ccc(-c2[nH]nc3c2C(c2ccc(OC(=O)N4CCOCC4)cc2)C(C#N)=C(N)O3)cc1 (stereo not drawn) | 96%
OCc1nc(CO)n(Cc2ccccc2)n1 | 108%
COc1ccc(-c2onc(C)c2-c2ccccc2)c(O)c1 | 62.9%
O=C(NCc1ccco1)C(c1ccco1)N(C(=O)Cn1nnc2ccccc21)c1ccc2c(c1)CCC2 (stereo not drawn) | 91.2%
O=C(NCC(=O)N(c1cnc2ccccc2c1)C(C(=O)NC1CCCC1)c1ccncc1)c1ccco1 (stereo not drawn) | 93.7%
COc1ccccc1Nc1nc(N)nc(CSc2nccc(C)n2)n1 | 85.7%
c1ccc(-c2ccccc2OCCn2cncn2)cc1 | 83.9%
COc1cccc(-c2cc(C(=O)N3CCc4ccccc4C3)no2)c1 | 103%
COc1ccc(CN(C(=O)c2oc3ccccc3c2C)C2CCS(=O)(=O)C2)cc1 (stereo not drawn) | 81.7%
Cc1cccn2c(=O)c3cc(C#N)c(=NC(=O)c4cccnc4)n(CC4CCCO4)c3nc12 (stereo not drawn) | 44.1%
CC(=O)NS(=O)(=O)c1ccc(N)cc1 | 95.4%
CCc1ccccc1OCCCCCNCCO | 87.4%
COc1cc(NC(=O)C2CC(c3cccc(OC)c3OC)=NO2)cc(OC)c1OC (stereo not drawn) | 69.1%
NC1=NC(c2ccc(Cl)cc2)n2c(nc3ccccc32)N1 (stereo not drawn) | 89.3%
Cn1c(=O)c2c(nc(CN3CCOCC3)n2CC(O)CO)n(C)c1=O (stereo not drawn) | 91.1%
Cc1csc2ncc(C(=O)N3CCc4ccccc43)c(=O)n12 | 92.5%
CCCn1c(-c2ccc(F)cc2)cnc1SCC(=O)O | 81.2%
COc1ccc(OC)c(NC(=O)CSc2ncccc2C(=O)O)c1 | 96.4%
CC(C)CCn1c(=O)c2ccccc2n2c(CN(C)Cc3ccccc3)nnc12 | 12.1%
Cc1ccc(-n2nnnc2SCC(=O)Nc2c(C)n(C)n(-c3ccccc3)c2=O)cc1 | 104%
O=C(CCN1C(=O)COc2ccccc21)NCCCN1CCN(c2ccccc2F)CC1 | 79%
CN(Cc1ccccc1)c1nc2c(c(=O)[nH]c(=O)n2C)n1Cc1ccccc1Cl | 80.4%
O=C1CCc2cc(S(=O)(=O)N3CCC(C(=O)Nc4nccs4)CC3)ccc2N1 | 80.3%
CCOC(=O)N1CCN(c2c(NCCCOC(C)C)c(=O)c2=O)CC1 | 89.8%
Cc1nnc2n(-c3ccccc3)c(=O)c3c4c(sc3n12)CCCC4 | 52.4%
COc1cc2c(cc1NC(=O)COC(=O)Cn1cnc3ccccc31)oc1ccccc12 | 96.9%
CCCC(=O)O[C@]1(C(=O)COC(C)=O)CC[C@H]2[C@@H]3C[C@H](F)C4=CC(=O)C=C[C@]4(C)[C@@]3(F)[C@@H](O)C[C@@]21C | 104%
CCN(CC)CCCN1C(=O)C(=O)/C(=C(/O)c2ccccc2)C1c1ccccn1 (stereo not drawn) | 89.7%
CCOC(=O)CNC(=O)C(Cc1ccccc1)NS(=O)(=O)c1ccc2c(c1)CCC(=O)N2 (stereo not drawn) | 91.7%
Cc1ccc(S(=O)(=O)CCc2nnc(NC(=O)c3cnccn3)s2)cc1 | 97.6%
Cc1cc(C)cc(NC(=O)C2CCCN(S(=O)(=O)c3cnc[nH]3)C2)c1 (stereo not drawn) | 90.1%
